- system-name: androgen receptor (AR) (Rattus norvegicus)
- Construct: Ventral prostates were obtained form rats castrated 24 h prior to sacrifice; from tissue; host or cells: rat ventral prostate cytosol (castrated rats, charcoal-treated)
- Sequence (P15207 whole entry S389L): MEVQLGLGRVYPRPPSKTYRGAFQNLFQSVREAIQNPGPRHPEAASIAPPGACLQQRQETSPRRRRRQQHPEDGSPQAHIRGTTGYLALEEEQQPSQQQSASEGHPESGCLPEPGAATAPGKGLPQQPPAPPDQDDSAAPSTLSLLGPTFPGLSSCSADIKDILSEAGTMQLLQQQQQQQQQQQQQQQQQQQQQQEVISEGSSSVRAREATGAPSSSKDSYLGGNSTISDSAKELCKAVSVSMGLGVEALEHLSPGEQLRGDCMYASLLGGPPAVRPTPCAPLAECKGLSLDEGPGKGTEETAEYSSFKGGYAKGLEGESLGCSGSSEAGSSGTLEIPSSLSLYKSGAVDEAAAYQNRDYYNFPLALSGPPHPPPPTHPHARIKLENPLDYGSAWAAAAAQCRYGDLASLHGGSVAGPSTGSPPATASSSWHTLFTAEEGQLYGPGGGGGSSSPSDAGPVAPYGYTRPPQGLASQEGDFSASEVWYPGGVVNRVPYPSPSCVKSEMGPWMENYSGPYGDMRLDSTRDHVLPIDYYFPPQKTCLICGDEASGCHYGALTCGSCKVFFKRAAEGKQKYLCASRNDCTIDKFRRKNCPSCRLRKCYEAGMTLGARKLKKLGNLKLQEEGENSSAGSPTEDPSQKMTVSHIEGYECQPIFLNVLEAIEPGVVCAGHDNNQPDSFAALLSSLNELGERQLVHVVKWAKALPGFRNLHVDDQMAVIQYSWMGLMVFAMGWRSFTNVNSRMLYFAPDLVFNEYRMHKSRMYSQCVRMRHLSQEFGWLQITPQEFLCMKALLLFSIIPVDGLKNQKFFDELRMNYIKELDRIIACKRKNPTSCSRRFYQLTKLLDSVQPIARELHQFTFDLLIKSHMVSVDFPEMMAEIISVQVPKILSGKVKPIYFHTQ
- assay: AR binding assay, competition with [3H]-mibolerone binding in rat ventral prostate cytosol
- condition-label: test compound 2.0 μM, 1 nM [3H]-mibolerone, overnight at 0° C.
parameter: inhibition at 2 µM (%)
Numbers only, in %.

- molecule: "Cc1cc(NC(=O)C(C)(O)COc2ccc(Cl)cc2)ccc1[N+](=O)[O-] (stereo not shown)"
  unit-label: "%"
  inhibition at 2 µM: 92
- molecule: "CC(O)(COc1ccc(C#N)c(F)c1)C(=O)Nc1ccc([N+](=O)[O-])c(CO)c1 (stereo not shown)"
  unit-label: "%"
  inhibition at 2 µM: 92

// batch mode: one inhibition at 2 µM value per listed entry
1. Cc1cc(NC(=O)C(C)(O)COc2c(Cl)cccc2Cl)ccc1[N+](=O)[O-] (stereo not shown)
2. CC(=O)Nc1ccc(OC[C@](C)(O)C(=O)Nc2ccc([N+](=O)[O-])c(C)c2)cc1F

Result:
1: 91; 2: 88
